# maps each entry to its kon
TARGET_OR_TEST_SYSTEM: T1, Recombinant MBP-mutCALR Type 1 fusion protein (human)
T1 construct: custom made at Cepter; also called recombinant mutCALR protein
ASSAY_SUMMARY: SPR, IgG captured, 1:1 fit, Exp. 2
Use M⁻¹ s⁻¹ as the unit, but write only the number.

Use the examples below as a reference point.
• anti-mutCALR antibody clone 70 (antibody, human IgG1, lambda, N297A, V domains shown, human IgG1 N297A variant of clone 6) VH: EVQLVQSGAEVKKPGASVKVSCKVSGYTLTELSMQWVRQAPGKGLEWMGGFDPDDGETMYAEKFQGRLTVTEDTSTDTVYMELSSLRSEDTAVYFCATSPGYDFFDYWGQGTLVTVSS VL: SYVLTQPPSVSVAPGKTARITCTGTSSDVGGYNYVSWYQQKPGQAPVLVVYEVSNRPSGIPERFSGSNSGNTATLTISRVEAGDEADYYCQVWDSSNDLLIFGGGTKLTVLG = 987000
• anti-mutCALR antibody clone 133 (antibody, human IgG1, lambda, N297A, V domains shown, human IgG1 N297A variant of clone 15) VH: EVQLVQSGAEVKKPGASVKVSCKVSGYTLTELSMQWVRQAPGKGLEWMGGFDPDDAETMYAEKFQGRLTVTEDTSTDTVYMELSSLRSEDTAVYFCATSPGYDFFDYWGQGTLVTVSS VL: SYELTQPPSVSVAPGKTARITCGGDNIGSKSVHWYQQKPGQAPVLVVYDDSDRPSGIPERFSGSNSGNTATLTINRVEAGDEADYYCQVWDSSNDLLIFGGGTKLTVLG = 8.51e+06
• anti-mutCALR antibody clone 36 (antibody, human IgG1, lambda, V domains shown, human IgG1) VH: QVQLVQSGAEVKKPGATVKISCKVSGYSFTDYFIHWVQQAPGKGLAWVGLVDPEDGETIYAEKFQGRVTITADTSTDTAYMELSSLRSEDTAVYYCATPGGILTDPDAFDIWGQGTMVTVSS VL: QSALTQPRSVSGSPGQSVTISCAGTGSDVGGYNYVSWYQHHPGKAPKLMIYDVNKRPSGVPDRFSGSKSGNTASLTISGLQAEDEADYYCSSYTSSSTFYVFGTGTKVTVLG = 1.36e+06
• anti-mutCALR antibody clone 143 (antibody, human IgG1, lambda, N297A, V domains shown, human IgG1 N297A variant of clone 15) VH: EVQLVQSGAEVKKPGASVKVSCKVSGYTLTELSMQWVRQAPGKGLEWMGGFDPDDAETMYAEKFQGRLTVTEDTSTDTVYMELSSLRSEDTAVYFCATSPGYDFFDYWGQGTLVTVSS VL: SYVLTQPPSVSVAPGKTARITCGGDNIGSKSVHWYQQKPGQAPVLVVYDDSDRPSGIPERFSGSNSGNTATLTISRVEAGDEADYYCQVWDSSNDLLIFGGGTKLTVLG = 5.74e+06
• anti-mutCALR antibody clone 62 (antibody, human IgG1, lambda, N297A, V domains shown, human IgG1 N297A variant of clone 6) VH: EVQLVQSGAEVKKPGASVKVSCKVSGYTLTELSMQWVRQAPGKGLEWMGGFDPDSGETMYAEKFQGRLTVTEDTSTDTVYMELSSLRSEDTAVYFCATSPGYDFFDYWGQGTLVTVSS VL: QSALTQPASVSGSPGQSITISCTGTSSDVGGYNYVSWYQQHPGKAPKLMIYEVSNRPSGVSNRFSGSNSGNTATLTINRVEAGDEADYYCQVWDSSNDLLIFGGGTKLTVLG = 3.52e+06
• anti-mutCALR antibody clone 78 (antibody, human IgG1, lambda, N297A, V domains shown, human IgG1 N297A variant of clone 6) VH: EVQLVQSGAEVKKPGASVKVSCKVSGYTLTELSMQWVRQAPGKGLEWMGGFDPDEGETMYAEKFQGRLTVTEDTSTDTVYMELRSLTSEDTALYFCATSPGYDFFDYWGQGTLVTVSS VL: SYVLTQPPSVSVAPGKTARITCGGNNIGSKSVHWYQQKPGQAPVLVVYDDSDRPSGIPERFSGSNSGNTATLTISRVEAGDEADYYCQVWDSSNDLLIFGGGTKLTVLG = 873000
• anti-mutCALR antibody clone 51 (antibody, human IgG1, lambda, V domains shown, human IgG1) VH: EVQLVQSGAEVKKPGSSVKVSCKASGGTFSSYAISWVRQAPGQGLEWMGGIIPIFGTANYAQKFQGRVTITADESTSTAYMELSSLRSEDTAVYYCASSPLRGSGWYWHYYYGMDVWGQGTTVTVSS VL: SYELTQPPSVSVAPGKTARITCGGNKIGTKSVHWYQQKPGQAPVLVIYQDSKRPSGIPERFSGSNSGNTATLTISGTQAMDEADYYCQAWGSSTVVFGGGTKLTVLG = 636000
• anti-mutCALR antibody clone 58 (antibody, human IgG1, lambda, N297A, V domains shown, human IgG1 N297A variant of clone 6) VH: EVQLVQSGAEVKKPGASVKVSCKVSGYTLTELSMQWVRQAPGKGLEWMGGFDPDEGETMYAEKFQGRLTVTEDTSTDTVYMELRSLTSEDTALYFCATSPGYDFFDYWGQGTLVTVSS VL: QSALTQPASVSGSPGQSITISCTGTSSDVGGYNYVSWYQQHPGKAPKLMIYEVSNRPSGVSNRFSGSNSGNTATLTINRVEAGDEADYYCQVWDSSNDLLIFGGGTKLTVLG = 6.76e+06

Q. Entry anti-mutCALR antibody clone 61 (antibody, human IgG1, lambda, N297A, V domains shown, human IgG1 N297A variant of clone 6) VH: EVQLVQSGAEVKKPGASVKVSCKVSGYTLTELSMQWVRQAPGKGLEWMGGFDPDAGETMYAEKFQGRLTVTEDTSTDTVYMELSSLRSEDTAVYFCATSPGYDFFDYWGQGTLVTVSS VL: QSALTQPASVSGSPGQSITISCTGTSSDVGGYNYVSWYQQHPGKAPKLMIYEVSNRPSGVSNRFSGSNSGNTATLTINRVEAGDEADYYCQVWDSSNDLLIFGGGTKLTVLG needs its kon filled in; supply it.
A. 4.13e+06

Q. Using known records, supply kon for anti-mutCALR antibody clone 63 (antibody, human IgG1, lambda, N297A, V domains shown, human IgG1 N297A variant of clone 6) VH: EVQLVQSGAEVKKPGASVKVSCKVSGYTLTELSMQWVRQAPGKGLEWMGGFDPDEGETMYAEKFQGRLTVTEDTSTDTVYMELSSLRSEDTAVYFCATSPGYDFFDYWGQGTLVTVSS VL: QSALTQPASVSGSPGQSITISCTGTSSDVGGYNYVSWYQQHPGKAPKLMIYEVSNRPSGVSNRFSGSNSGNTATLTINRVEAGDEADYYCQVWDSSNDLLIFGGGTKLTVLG
A. 2.83e+06

The values you see were collected from patent US20230272055A1.
